Item-by-item account of EC50
tested on: VV; assay: microbe, parasite or virus in culture; type: cell-based, vaccinia virus; conditions: Orthopoxvirus vaccinia, BSC-1, read-out: VV EC50
Reply with just the number (in µM).

Previously resolved entries follow.
compound="CCC(C(=O)Nc1ncc(C(=O)OC)s1)c1ccccc1 (stereo not shown)" system=VV value_type=EC50 recorded_value=21.4
compound="CCC(C(=O)Nc1sncc1C#N)c1ccccc1 (stereo not shown)" system=VV value_type=EC50 recorded_value=21.8
compound="CCC(C(=O)Nc1sc(C(N)=O)c(C)c1C#N)c1ccc([N+](=O)[O-])cc1 (stereo not shown)" system=VV value_type=EC50 recorded_value=35
compound="CCOC(=O)c1sc(NC(=O)C(CC)c2ccccc2)c(C(N)=O)c1C (stereo not shown)" system=VV value_type=EC50 recorded_value=31.3
compound="CCC(C(=O)Nc1sc(C(=O)OC)cc1C#N)c1ccccc1 (stereo not shown)" system=VV value_type=EC50 recorded_value=11

Documented EC50 of "CCOC(=O)c1c(NC(=O)C2CCCCC2)sc(C(N)=O)c1C" : 48.9

Documented EC50 of CCC(C(=O)Nc1cc(C)c(C(=O)OC)s1)c1ccccc1 (stereo not shown) : 26.8

Documented EC50 of "O=C(NCc1ccc(Cl)cc1)c1nnsc1NC(=O)N1CCN(c2ccccc2)CC1" : 9.4

Documented EC50 of "CC[C@@H](C(=O)Nc1sc(C(N)=O)c(C)c1C(=O)OC)c1ccccc1" : 16.4

Documented EC50 of CCC(C(=O)Nc1cc(C)ns1)c1ccccc1 (stereo not shown) : 41.7

Documented EC50 of CCC(C(=O)Nc1cc(C)cs1)c1ccccc1 (stereo not shown) : 46.7
